system: MDA-N; assay: NCI tumour cell line growth inhibition, 48 h
# maps each entry to its TGI

Guide cases for TGI, answers given:
Compound: CN(C)c1nc2n(CCO)c(-c3ccccc3)c(-c3ccccc3)nc-2c(=O)n1
Measured Target: MDA-N
TGI: > 100 µM
//
Compound: N#Cc1c(NCCc2ccc(F)cc2)c2ccccc2n2c1nc1ccccc12
Measured Target: MDA-N
TGI: > 100 µM
//
Compound: CCCCCCCCCCCCCCCC(=O)OCC1CCCN2CCCCC12 (configuration not stated)
Measured Target: MDA-N
TGI: > 100 µM
//
Compound: O=c1oc2ccccc2c(O)c1C1c2c(c3ccccc3oc2=O)Oc2c1c(=O)oc1ccccc21
Measured Target: MDA-N
TGI: 37.3 µM
//
Compound: COC(=O)[C@H]1C[C@H]1NC(=O)C(CC(=O)OCc1ccccc1)NC(=O)OCc1ccccc1 (some centres not stated)
Measured Target: MDA-N
TGI: > 100 µM

Task: Which TGI reading was recorded for the compound C/C1=C/C2=CC(C)C[C@@H]2C(=O)[C@]2(C)C(=O)CC(C)(C)[C@H]2CC1=O (some centres not stated) ?
Result: > 50 µM

Task: Sample O=C(O)c1cc2cc(c1)N=Cc1ccccc1OCc1cccc(n1)COc1ccccc1C=N2 — what was its TGI?
Result: 9.82 µM

###

# reported GI50; entries follow
test system: MDA-MB-435

Example entries begin here.
Chemical String: O=C(CN1CCN(c2ccc(Cl)cc2)CC1)N1CCN(c2nnc(-c3ccc(Cl)cc3)c(-c3ccc(Cl)cc3)n2)CC1
Result: 50.9 µM

Chemical String: Cc1cnc(/C=N\NC(N)=S)c2cccc(N)c12
Result: 3.9 µM

Chemical String: CC1CCN(CCCCCOc2ccc3oc4cc(Cl)ccc4c(=O)c3c2)CC1
Result: 1.55 µM

Now consider a different molecule.
Task: Which GI50 value is on record for Cc1cccc(C(=O)/C=C/SC(=NC#N)SCc2ccccc2)c1 ?
Result: 23.1 µM

###

system: MDA-MB-231 breast; assay: NCI tumour cell line growth inhibition, 48 h; in the data active means GI50 below about 0.43 µM; inactive means the rest
# output must be one of active, inactive

Below are worked cases with known answers.
Molecule: CC[C@H](Nc1nc(N)nc(C)c1C#N)c1nc2cccc(NCc3ccc(C(=O)NO)cc3)c2c(=O)n1-c1ccccc1
Category Label: inactive
--
Molecule: CC(=O)OCC(=O)O[C@@H]1C[C@]2(C(C)C)O[C@@]1(C)[C@@H]1CC[C@@H](C)[C@H]1[C@@H]2OC(=O)/C=C/c1ccccc1
Category Label: inactive
--
Molecule: COc1ccc(-c2nn(-c3cccc(NC(=O)c4ccc5c(c4)OCCO5)c3)cc2-c2ccncc2)cc1Cl
Category Label: inactive
--
Molecule: CC/C=C\C/C=C\C[C@H](O)C/C=C1/C(=O)C=C[C@@H]1C/C=C\CCCC(=O)O
Category Label: inactive

Task: Could you kindly confirm the outcome this assay logged for CCN1C(=O)NC(=O)C(C)(N2C(=O)c3c(F)c(F)c(F)c(F)c3C2=O)C1=O (stereo not given) ?
Result: inactive

Task: Dear colleague, could you share the recorded outcome for O=C(Nc1ccc(Oc2ccc3nc(NC(=O)c4ccccc4)[nH]c3c2)cc1)Nc1cc(C(F)(F)F)ccc1F when you have a moment?
Result: inactive

Task: How was CC(C)(C)c1[nH]cnc1/C=c1\[nH]c(=O)/c(=C/c2ccccc2)[nH]c1=O classified in this test?
Result: active

Task: // outcome(item) with item = C/C(=C\C1=C(Cl)C(=O)c2ccccc2C1=O)C(=O)O
Result: inactive

Task: Would you mind telling me which call this test gave CCOC(=O)c1c2c(n(Cc3ccccc3)c1C)-c1ccccc1C(=O)C2=O ?
Result: inactive

Task: Kindly provide the recorded test outcome for the following molecule: CN(C)c1ccc(/C=C(\C#N)c2nc3ccccc3n2C)cc1
Result: inactive

###

test system: TK-10 renal; test: NCI tumour cell line growth inhibition, 48 h
Catalogue of TGI readings, one per entry.
Just the number please, in µM, no unit attached.

Recorded results for 3 compounds are shown here.
Chemical String: O=C(Nc1ccc(Oc2ccc3nc(NC(=O)c4ccccc4)[nH]c3c2)cc1)Nc1cc(C(F)(F)F)ccc1F
Unit Label: µM
TGI: 22
//
Chemical String: O=C(Nc1cccc(Oc2nnc(Cl)c3ccccc23)c1)Nc1ccc(Cl)c(C(F)(F)F)c1
Unit Label: µM
TGI: 6.55
//
Chemical String: CN(C)c1ccc(/C=C(\C#N)c2nc3ccccc3n2C)cc1
Unit Label: µM
TGI: 67.9

# ---- query compound ----
Task: Name the recorded TGI for CC(=O)OCC(=O)O[C@@H]1C[C@]2(C(C)C)O[C@@]1(C)[C@@H]1CC[C@@H](C)[C@H]1[C@@H]2OC(=O)/C=C/c1ccccc1 .
Result: 39.7

###

tested on: A549 NSCLC; assay: NCI tumour cell line growth inhibition, 48 h
Metric Name: GI50

Below: 4 molecules and their reported GI50.
Molecule: O=C(c1ccco1)c1nc2cc(F)ccc2[n+]([O-])c1C(F)(F)F
GI50: 34.6 µM

Molecule: COc1ccc(C2=NN(C(=O)c3cc(OC)c(OC)c(OC)c3)C(c3ccc(Cl)cc3)C2)cc1OC (stereo not given)
GI50: 4.03 µM

Molecule: CCOC(=O)/C=C/c1cc2cc(-c3csc4ccccc34)ccc2[nH]1
GI50: 4.39 µM

Molecule: CN(C)c1ccc(/C=C(\C#N)c2nc3ccccc3n2C)cc1
GI50: 4.53 µM

Task: Given O=C(CF)N(O)c1ccc(/C=C/c2ccccc2)cc1 , state its recorded GI50.
Result: 1.17 µM

###

tested on: CAKI-1 renal; assay: NCI tumour cell line growth inhibition, 48 h; in the data active = GI50 below about 0.43 µM; inactive = the rest
A correct response names exactly one class from active, inactive

Chemical String: COc1ccc(-c2nn(-c3cccc(NC(=O)c4ccc5c(c4)OCCO5)c3)cc2-c2ccncc2)cc1Cl
Category Label: inactive
//
Chemical String: CC(C)(C)c1[nH]cnc1/C=c1\[nH]c(=O)/c(=C/c2ccccc2)[nH]c1=O
Category Label: active
//
Chemical String: C/C(=C\C1=C(Cl)C(=O)c2ccccc2C1=O)C(=O)O
Category Label: inactive
//
Chemical String: O=C(CN1CCN(c2ccc(Cl)cc2)CC1)N1CCN(c2nnc(-c3ccc(Cl)cc3)c(-c3ccc(Cl)cc3)n2)CC1
Category Label: inactive

Could you now look at the following compound, please?
Task: Hi team, can someone confirm the assay call for Cc1cnc(/C=N\NC(N)=S)c2cccc(N)c12 ?
Result: inactive

###

# TGI per record follows
tested on: A498 renal; assay: NCI tumour cell line growth inhibition, 48 h

Compound: CCOC(=O)N(c1ccccc1)c1cc(=O)n2ccccc2n1
Metric Name: TGI
Result: > 100 µM

Compound: CC(=O)O[C@H]1CC[C@@]2(C)C(=CC[C@@H]3[C@@H]2CC[C@]2(C)Nc4c(cnn4S(C)(=O)=O)C[C@@H]32)C1
Metric Name: TGI
Result: > 100 µM

Compound: CCC1(CCSC(=N)N)C(=O)NC(=O)NC1=O
Metric Name: TGI
Result: > 100 µM

Compound: COc1cc(-c2cc(=O)c3c(O)c(OC)c(OC)c(OC)c3o2)ccc1O
Metric Name: TGI
Result: 17.6 µM

Compound: CCCCOC(=O)NC(Nc1ccc(S(=O)(=O)Nc2ccc(OC)nn2)cc1)(C(F)(F)F)C(F)(F)F
Metric Name: TGI
Result: > 100 µM

Compound: CCC1CN2CCC1CC2 (stereo not given)
Metric Name: TGI
Result: > 100 µM

Compound: C[C@@H]1CC[C@@H]2[C@@H]1[C@H](OC(=O)/C=C/c1ccccc1)[C@]1(C3CCCCC3)C[C@@H](NC(=O)CO)[C@@]2(C)O1
Metric Name: TGI
Result: 6.61 µM

Compound: O=C(Nc1ccc(Oc2ccc3nc(NC(=O)c4ccccc4)[nH]c3c2)cc1)Nc1cc(C(F)(F)F)ccc1F
Metric Name: TGI
Result: > 25 µM

Task: Given the entry CC1(C)CC(=O)C2=C(C1)S/C(=C1/SC3=C(S1)C(=O)CC(C)(C)C3)S2 , report its measured TGI.
Result: > 251 µM

Task: Param item = O=C(Nc1ccc(CN2CCOCC2)cc1)c1[nH]ncc1Nc1ncnc2sccc12 ; retrieve measured TGI.
Result: 0.461 µM

###

system: UO-31 renal; assay: NCI tumour cell line growth inhibition, 48 h
Metric Name: TGI

Task: Query: TGI; subject: COc1cc(C=C2N=C(c3ccccc3)N(n3c(-c4ccccc4)nc4ccccc4c3=O)C2=O)cc(OC)c1OC
Result: > 100 µM

Task: Given Cn1cc(C2=C(c3cccnc3)C(=O)NC2=O)c2ccccc21 , state its recorded TGI.
Result: > 25 µM

Task: Report TGI for O=C1c2ccccc2-c2c1c(-c1ccc([N+](=O)[O-])cc1)nc1ccc3ccccc3c21 please.
Result: > 100 µM

###

test system: ACHN renal; assay: NCI tumour cell line growth inhibition, 48 h
Metric Name: TGI

Compound: Nc1c(-c2nc3ccccc3o2)sc(=S)n1-c1ccc(Cl)cc1
Measured Target: ACHN renal
TGI: 24.1 µM

Compound: NNC(=S)N/N=C(/C(=O)Nc1cc(Cl)ccc1Cl)C1C(=O)Nc2ccccc2S1=O (stereo unspecified)
Measured Target: ACHN renal
TGI: > 100 µM

Compound: CC(=O)c1cc2c(cc1Nc1c3ccccc3nc3occ(Cl)c13)OCO2
Measured Target: ACHN renal
TGI: > 100 µM

Compound: CSC1=NC(C(N)=O)C(N)N1C (stereo unspecified)
Measured Target: ACHN renal
TGI: > 100 µM

Compound: O=[N+]([O-])c1ccc2c(N3CCC(CCCC4CCN(c5ncnc6cc([N+](=O)[O-])ccc56)CC4)CC3)ncnc2c1
Measured Target: ACHN renal
TGI: > 100 µM

Lab note: next compound to report on.
Task: What measured TGI is associated with O=C(CCCN1CCC2(CC1)NC(=O)c1ccccc1O2)c1ccc(F)cc1 on ACHN renal?
Result: > 100 µM
